system: M14 melanoma; assay: NCI-60 one-dose screen, 48 h (100 = growth as untreated, 0 = no growth, -100 = all killed); conditions: 10 µM unless noted
About 83,000 compounds went through this panel and 20% of them were active in at least one assay; those are over-represented in the sample as a whole.
Label 1.0 when growth is strictly below 60%; otherwise label 0.0.

Solved entries (count: 4):
INSERT INTO measurements (compound, group) VALUES
  ('CN(C)c1ccc(/C=C(\C#N)c2cc3ccccc3[nH]2)cc1', 1.0),
  ('CCN(CC)CCN1C(=O)c2c(c(C)c3c(oc4ccc(O)cc43)c2C)C1=O', 1.0),
  ('c1ccc(CCNc2c3ccccc3nc3ccccc23)cc1', 1.0),
  ('CO[C@H](C(=O)[C@@H](O)[C@@H](C)O)[C@@H]1Cc2cc3cc(O[C@H]4C[C@@H](O[C@H]5C[C@@H](O)[C@H](O)C(C)O5)[C@H](O)C(C)(O)O4)cc(O)c3c(O)c2C(=O)[C@H]1O[C@H]1C[C@@H](O[C@H]2C[C@@H](O[C@H]3C[C@@H](OC)[C@H](O)C(C)O3)[C@@H](O)C(C)O2)[C@H](O)C(C)O1 (some centres not stated)', 1.0);

Lookup: Say whether its growth is strictly beneath 60%. Entry: O=C1/C(=C/c2ccc(O)c(O)c2)COc2ccc(-c3ccccc3)cc21
Found: 1.0

Lookup: Say whether its growth is strictly beneath 60%. Entry: NC(=O)c1cnc(Nc2cccc(N)c2)nc1NCCCNC(=O)C1CCC1
Found: 1.0

Lookup: Say whether its growth is strictly beneath 60%. Entry: O=C1Nc2ccccc2/C1=C\c1c[nH]c2ccc(Br)cc12
Found: 0.0

Lookup: Say whether its growth is strictly beneath 60%. Entry: CC(=O)Oc1ccc(OC(C)=O)c2ccccc12
Found: 0.0

Lookup: Say whether its growth is strictly beneath 60%. Entry: CC(=O)OC(c1ccccc1)C1CCOC1=O (configuration not stated)
Found: 0.0

Lookup: Say whether its growth is strictly beneath 60%. Entry: CCN(CC)Cc1cc(Nc2ccnc3cc(Cl)ccc23)ccc1O
Found: 0.0

Lookup: Say whether its growth is strictly beneath 60%. Entry: COc1ccc(CCN(CC(=O)N(CC(N)=O)C2CCC[C@@H]2OCc2ccccc2)C(=O)CN(C(=O)CN(CCc2ccc(Cl)cc2)C(=O)CN(C(=O)CN(C)Cc2ccccc2F)[C@H](C)C2CCCCC2)[C@H](C)C2CCCCC2)cc1OC (some centres not stated)
Found: 1.0

Lookup: Say whether its growth is strictly beneath 60%. Entry: CCCCCCCCCCCCCCCCCCOc1ccccc1CC(=O)NCC[N+]1(C)CCCCC1
Found: 0.0

Lookup: Say whether its growth is strictly beneath 60%. Entry: CCCCCCCCCCCCCOC(=O)c1c(C)[nH]c(/C=C2\N=C(c3ccc[nH]3)C=C2OC)c1C
Found: 1.0

Lookup: Say whether its growth is strictly beneath 60%. Entry: N[C@H]1CCC[C@@H]1NCCCCN1C(=O)c2cccc3cc([N+](=O)[O-])cc(c23)C1=O
Found: 0.0

Lookup: Say whether its growth is strictly beneath 60%. Entry: C=C1C(=O)O[C@H]2[C@H]1CC/C(CNC(=O)c1c[nH]c3ccc(F)cc13)=C\CC[C@@]1(C)O[C@@H]21
Found: 1.0

Lookup: Say whether its growth is strictly beneath 60%. Entry: O=P(O)(O)OCC1OC(n2cnc3c(NCc4ccco4)ncnc32)C(O)C1O (configuration not stated)
Found: 1.0
